Measured values drawn from ChEMBL document CHEMBL4311944 for this set.

- PROCEDURE DETAILS: Inhibition of ligand binding to mTORC1/mTORC2 in human HuT78 cells after 2 hrs by kinobead competition binding assay
- Type: cell-based
PROPERTY LABEL: pIC50
One number for each entry.

Answered cases to consult:
- Oc1cccc(-c2nccc(C3CCOCC3)n2)c1: 4.5
- CNCC(=O)Nc1ccc(-c2nc(CS(C)(=O)=O)cc(N3CCOC[C@@H]3C)n2)cc1: 7.7
- CCNC(=O)Nc1ccc(-c2nc(C(C)(C)S(C)(=O)=O)cc([C@]34CCOC[C@H]3C4)n2)cc1: 6.9
- CS(=O)(=O)Cc1cc([C@@]23CCOC[C@@H]2C3)nc(-c2cccc(O)c2)n1: 5.9
- CCNC(=O)Nc1ccc(-c2nccc(C3=CCOCC3)n2)cc1: 6

Here are 7 compounds. What values of pIC50 were reported for them?
1. CCNC(=O)Nc1ccc(-c2nccc(C34CCOCC3C4)n2)cc1 (stereo unspecified)
2. CS(=O)(=O)Cc1cc(C2=CCOCC2)nc(-c2cccc(O)c2)n1
3. CC(C)(c1cc([C@]23CCOC[C@H]2C3)nc(-c2cccc(O)c2)n1)S(C)(=O)=O
4. C[C@H]1COCCN1c1ccnc(-c2cccc(O)c2)n1
5. CNCC(=O)Nc1ccc(-c2nc(N3CCOC[C@@H]3C)cc(C(C)(C)S(C)(=O)=O)n2)cc1
6. Oc1cccc(-c2nccc(C34CCOCC3C4)n2)c1 (stereo unspecified)
7. CC(C)(c1cc([C@]23CCOC[C@H]2C3)nc(-c2ccc(NC(=S)NCCO)cc2)n1)S(C)(=O)=O

5.8
6.4
5.5
5.7
8
4.8
8.6

List reported pIC50 for each of these compounds:
1. Oc1cccc(-c2nccc([C@]34CCOC[C@H]3C4)n2)c1
2. CS(=O)(=O)Cc1cc([C@]23CCOC[C@H]2C3)nc(-c2cccc(O)c2)n1

1. 5.1
2. 5.8

Look at each compound and report its pIC50.
1. CCNC(=O)Nc1ccc(-c2nccc([C@]34CCOC[C@H]3C4)n2)cc1
2. CNCC(=O)Nc1ccc(-c2nc(C(C)(C)S(C)(=O)=O)cc([C@]34CCOC[C@H]3C4)n2)cc1
3. C[C@H]1COCCN1c1cc(C(C)(C)S(C)(=O)=O)nc(-c2cccc(O)c2)n1
4. Oc1cccc(-c2nccc(C3=CCOCC3)n2)c1
5. CCNC(=O)Nc1ccc(-c2nc(N3CCOC[C@@H]3C)cc(C(C)(C)S(C)(=O)=O)n2)cc1
6. CC(C)(c1cc([C@@]23CCOC[C@@H]2C3)nc(-c2ccc(NC(=S)NCCO)cc2)n1)S(C)(=O)=O

6.1
7.6
5.7
5.7
7.3
8.2

Give one value of pIC50 per listed compound.
1. Oc1cccc(-c2nccc(N3CCOCC3)n2)c1
2. CCNC(=O)Nc1ccc(-c2nccc(N3CCOCC3)n2)cc1
3. C[C@H]1COCCN1c1cc(C(C)(C)S(C)(=O)=O)nc(-c2ccc(NC(=S)NCCO)cc2)n1
4. CNCC(=O)Nc1ccc(-c2nc(CS(C)(=O)=O)cc([C@@]34CCOC[C@@H]3C4)n2)cc1
5. CCNC(=O)Nc1ccc(-c2nc(CS(C)(=O)=O)cc([C@@]34CCOC[C@@H]3C4)n2)cc1
6. CCNC(=O)Nc1ccc(-c2nccc(N3CCOC[C@@H]3C)n2)cc1

[5.9, 6.5, 8.4, 7.1, 6.1, 6.1]

# batch size: 6; output pIC50 per entry
1. CCNC(=O)Nc1ccc(-c2nc(C(C)(C)S(C)(=O)=O)cc([C@@]34CCOC[C@@H]3C4)n2)cc1
2. CNCC(=O)Nc1ccc(-c2nc(CS(C)(=O)=O)cc([C@]34CCOC[C@H]3C4)n2)cc1
3. CNCC(=O)Nc1ccc(-c2nc(C(C)(C)S(C)(=O)=O)cc([C@@]34CCOC[C@@H]3C4)n2)cc1
4. CCNC(=O)Nc1ccc(-c2nc(CS(C)(=O)=O)cc([C@]34CCOC[C@H]3C4)n2)cc1
5. CCNC(=O)Nc1ccc(-c2nccc([C@@]34CCOC[C@@H]3C4)n2)cc1
6. C[C@H]1COCCN1c1cc(CS(C)(=O)=O)nc(-c2cccc(O)c2)n1

[6.6, 7.4, 7.3, 7, 5.5, 6.7]

// each compound listed below needs its pIC50
1. CCNC(=O)Nc1ccc(-c2nc(CS(C)(=O)=O)cc(N3CCOCC3)n2)cc1
2. CCNC(=O)Nc1ccc(-c2nc(CS(C)(=O)=O)cc(N3CCOC[C@@H]3C)n2)cc1

[7.3, 7.1]
